Tested on: NCI-H522
Test Protocol: NCI tumour cell line growth inhibition, 48 h
Active and inactive are the calls of the source. No stated cut-off is given here; in the data, active = GI50 up to about 1.1 µM and inactive = higher.
Measured Attribute: GI50

| Compound | Measured Attribute | Endpoint Value |
| --- | --- | --- |
| O=C(Cc1nc2ccccc2s1)C(=O)Nc1ccccc1C(F)(F)F | GI50 | > 100 µM (inactive) |
| CC(C)(C)N(Cc1ccoc1)C(=O)/C=C\[S+]([O-])c1ccccc1 (stereo not drawn) | GI50 | 17.5 µM (inactive) |

Here are 3 compounds. What values of GI50 were reported for them?
1. CN(C)c1ccc(C2C(Cl)C(=O)N2NC(=O)c2c(Cl)c(Cl)c(Cl)c(Cl)c2-c2nc3ccccc3[nH]2)cc1 (stereo not drawn)
2. NNC(=O)/C(=C/c1cccc([N+](=O)[O-])c1)NC(=O)c1ccccc1
3. COc1cccc(C[C@H]2COC(=O)[C@]2(O)Cc2cccc(OC)c2)c1

["2.79 µM (inactive)", "> 100 µM (inactive)", "55.7 µM (inactive)"]
